Reported inhibition is given for each of the following compounds.
- TESTED_ON: Heat shock protein HSP90 (Homo sapiens) (UniProt P07900+P08238)
- TEST_NAME: Inhibition of HSP90 in human H1299 cells assessed as suppression of HIF-1alpha at 10 nM preincubated for 72 hrs followed by incubation under hypoxic condition for 12 hrs by Western blot method relative to control
- Format: cell-based
Write it as a number; the unit % goes unstated.

compound="COc1cc2nccc(C(OC(=O)C3CC3)c3ccc4c(c3OC)C=CC(C)(C)O4)c2cc1OC (configuration not stated)" measured_value=63.3
compound="COc1cc2cc(C(OC(C)=O)c3ccc4ncccc4c3)oc2cc1OC (configuration not stated)" measured_value=88
compound="COc1cc2nccc(C(SC(C)=O)c3ccc4c(c3OC)C=CC(C)(C)O4)c2cc1OC (configuration not stated)" measured_value=74

inhibition measured on COc1cc2occ(C(=O)c3ccc4c(c3OC)C=CC(C)(C)O4)c2cc1OC = 105

inhibition measured on CO/N=C(/c1cc2cc(OC)c(OC)cc2o1)c1ccc2c(c1OC)C=CC(C)(C)O2 = 76.9

inhibition measured on COc1cc2c(cc1OC)[C@@H]1C(=O)c3ccc4c(c3O[C@@H]1CO2)C=CC(C)(C)O4 = 94

inhibition measured on COc1cc2nccc(C(OC(C)=O)c3ccc4c(c3OC)C=CC(C)(C)O4)c2cc1OC (configuration not stated) = 95.4

----------
Reported inhibition is given for each of the following compounds.
- TESTED_ON: Heat shock protein HSP90 (Homo sapiens) (UniProt P07900+P08238)
- TEST_NAME: Inhibition of HSP90 in human H1299 cells assessed as suppression of HIF-1alpha at 100 nM preincubated for 72 hrs followed by incubation under hypoxic condition for 12 hrs by Western blot method relative to control
- Format: cell-based
Write it as a number; the unit % goes unstated.

Study these solved cases before continuing.
compound="COc1cc2occ(C(OC(C)=O)c3ccc4c(c3OC)C=CC(C)(C)O4)c2cc1OC (stereo not given)" property=inhibition measured_value=81
compound=COc1cc2cc(C(=O)c3ccc4c(c3OC)C=CC(C)(C)O4)oc2cc1OC property=inhibition measured_value=54.1

inhibition measured on COc1cc2ccc(C(OC(=O)C3CC3)c3ccc4c(c3OC)C=CC(C)(C)O4)nc2cc1OC (stereo not given) = 71

inhibition measured on CCC(=O)OC(c1ccc2c(c1OC)C=CC(C)(C)O2)c1ccnc2cc(OC)c(OC)cc12 (stereo not given) = 96.4

inhibition measured on COc1cc2nccc(C(=O)c3ccc4c(ccn4C)c3)c2cc1OC = 86

----------
- TESTED_ON: Heat shock protein HSP90 (Homo sapiens) (UniProt P07900+P08238)
- TEST_NAME: Inhibition of HSP90 in human H1299 cells assessed as suppression of HIF-1alpha at 100 nM preincubated for 72 hrs followed by incubation under hypoxic condition for 12 hrs by Western blot method relative to control
- Format: cell-based
Is inhibition at least 90%? Then 1.0. If not, 0.0.

Solved entries:
compound="COc1cc2nccc(C(NC(=O)C3CC3)c3ccc4c(c3OC)C=CC(C)(C)O4)c2cc1OC (stereo not given)" tested_on="Heat shock protein HSP90 (Homo sapiens) (UniProt P07900+P08238)" discrete_label=0.0
compound="COc1cc2nccc(C(OC(=O)C3CC3)c3ccc4c(c3OC)C=CC(C)(C)O4)c2cc1OC (stereo not given)" tested_on="Heat shock protein HSP90 (Homo sapiens) (UniProt P07900+P08238)" discrete_label=0.0
compound=COc1cc2cc(C(=O)c3ccc4ncccc4c3)oc2cc1OC tested_on="Heat shock protein HSP90 (Homo sapiens) (UniProt P07900+P08238)" discrete_label=0.0

Prompt: Quick check, inhibition >= 90%? COc1cc2cc(/C(=N\O)c3ccc4c(c3OC)C=CC(C)(C)O4)oc2cc1OC
Response: 1.0

Prompt: Quick check, inhibition >= 90%? COc1cc2ccc(C(=O)c3ccc4c(c3OC)C=CC(C)(C)O4)nc2cc1OC
Response: 0.0

Prompt: Quick check, inhibition >= 90%? COc1cc2ncnc(C(OC(=O)C3CC3)c3ccc4c(c3OC)C=CC(C)(C)O4)c2cc1OC (stereo not given)
Response: 0.0

Prompt: Quick check, inhibition >= 90%? COc1cc2nccc(C(NC(C)=O)c3ccc4c(c3OC)C=CC(C)(C)O4)c2cc1OC (stereo not given)
Response: 0.0

Prompt: Quick check, inhibition >= 90%? CO/N=C(/c1cc2cc(OC)c(OC)cc2o1)c1ccc2c(c1OC)C=CC(C)(C)O2
Response: 0.0

Prompt: Quick check, inhibition >= 90%? COc1cc2nccc(C(OC(C)=O)c3ccc4ncccc4c3OC)c2cc1OC (stereo not given)
Response: 0.0

Prompt: Quick check, inhibition >= 90%? CO/N=C(/c1ccc2c(c1OC)C=CC(C)(C)O2)c1ccnc2cc(OC)c(OC)cc12
Response: 0.0

Prompt: Quick check, inhibition >= 90%? COc1cc2cc(C(OC(C)=O)c3ccc4c(c3OC)C=CC(C)(C)O4)oc2cc1OC (stereo not given)
Response: 0.0

Prompt: Quick check, inhibition >= 90%? COc1cc2nccc(C(=O)c3ccc4c(c3OC)C=CC(C)(C)O4)c2cc1OC
Response: 0.0

Prompt: Quick check, inhibition >= 90%? COc1cc2nccc(C(OC(C)=O)c3ccc4c(c3OC)C=CC(C)(C)O4)c2cc1OC (stereo not given)
Response: 0.0

Prompt: Quick check, inhibition >= 90%? COc1cc2nccc(C(O)c3ccc4c(c3OC)C=CC(C)(C)O4)c2cc1OC (stereo not given)
Response: 0.0

Prompt: Quick check, inhibition >= 90%? COc1ccc(CC(=O)c2ccc3c(c2OC)C=CC(C)(C)O3)cc1OC
Response: 0.0

Prompt: Quick check, inhibition >= 90%? COc1cc2nccc(C(O)c3ccc4c(ccn4C)c3)c2cc1OC (stereo not given)
Response: 1.0

Prompt: Quick check, inhibition >= 90%? COc1cc2nccc(C(OC(C)=O)c3ccc4c(ccn4C)c3)c2cc1OC (stereo not given)
Response: 1.0

Prompt: Quick check, inhibition >= 90%? CO/N=C(\c1cc2cc(OC)c(OC)cc2o1)c1ccc2c(c1OC)C=CC(C)(C)O2
Response: 0.0

----------
- TESTED_ON: Heat shock protein HSP90 (Homo sapiens) (UniProt P07900+P08238)
- TEST_NAME: Inhibition of HSP90 in human H1299 cells assessed as suppression of HIF-1alpha at 100 nM preincubated for 72 hrs followed by incubation under hypoxic condition for 12 hrs by Western blot method relative to control
- Assay type: cell-based
Is inhibition at least 70%? Then true (1). If not, false (0).

Solved entries:
compound="COc1cc2nccc(C(OC(=O)C3CC3)c3ccc4c(ccn4C)c3)c2cc1OC (stereo unspecified)" discrete_label="true (1)"
compound="COc1cc2nccc(C(OC(=O)C3CC3)c3ccc4ncccc4c3OC)c2cc1OC (stereo unspecified)" discrete_label="true (1)"
compound="COc1cc2nccc(C(OC(=O)C3CC3)c3ccc4ncccc4c3)c2cc1OC (stereo unspecified)" discrete_label="true (1)"
compound="COc1cc2ccc(C(OC(C)=O)c3ccc4c(c3OC)C=CC(C)(C)O4)nc2cc1OC (stereo unspecified)" discrete_label="true (1)"
compound="COc1cc2nccc(C(OC(C)=O)c3ccc4ncccc4c3)c2cc1OC (stereo unspecified)" discrete_label="true (1)"
compound=COc1cc2c(cc1OC)[C@@H]1C(=O)c3ccc4c(c3O[C@@H]1CO2)C=CC(C)(C)O4 discrete_label="false (0)"
compound="COc1cc2nccc(C(SC(C)=O)c3ccc4c(c3OC)C=CC(C)(C)O4)c2cc1OC (stereo unspecified)" discrete_label="false (0)"
compound=COc1cc2occ(C(=O)c3ccc4c(c3OC)C=CC(C)(C)O4)c2cc1OC discrete_label="true (1)"

Now look at this entry.
Prompt: Quick check, inhibition >= 70%? COc1cc2cc(C(O)c3ccc4ncccc4c3)oc2cc1OC (stereo unspecified)
Response: true (1)

----------
Reported inhibition is given for each of the following compounds.
- TESTED_ON: Heat shock protein HSP90 (Homo sapiens) (UniProt P07900+P08238)
- TEST_NAME: Inhibition of HSP90 in human H1299 cells assessed as suppression of HIF-1alpha at 100 nM preincubated for 72 hrs followed by incubation under hypoxic condition for 12 hrs by Western blot method relative to control
- Format: cell-based

Study these solved cases before continuing.
compound="COc1cc2nccc(C(N)c3ccc4c(c3OC)C=CC(C)(C)O4)c2cc1OC (configuration not stated)" measured_value=68.9%
compound="COc1cc2nccc(C(OC(N)=O)c3ccc4c(c3OC)C=CC(C)(C)O4)c2cc1OC (configuration not stated)" measured_value=81.2%

inhibition measured on COc1cc2nccc(/C(=N\O)c3ccc4c(c3OC)C=CC(C)(C)O4)c2cc1OC = 64%

inhibition measured on COc1cc2cc(/C(=N/O)c3ccc4c(c3OC)C=CC(C)(C)O4)oc2cc1OC = 70.6%

inhibition measured on COc1cc2cc(C(OC(C)=O)c3ccc4ncccc4c3)oc2cc1OC (configuration not stated) = 56%

inhibition measured on COc1cc2cc(C(OC(=O)C3CC3)c3ccc4ncccc4c3)oc2cc1OC (configuration not stated) = 115%

inhibition measured on COc1cc2ccc(C(O)c3ccc4c(c3OC)C=CC(C)(C)O4)nc2cc1OC (configuration not stated) = 86%

Value source: ChEMBL document CHEMBL3860097
